Conditions: mouse, in vivo, po, 100 mg/kg, 30 min
Counter-ions that a name gives are not always drawn.
recorded metric: Plasma level of non-ester (compound [II]), 0.5 hr (ng/mL)

Use these answered entries as a reference point.
[
  {
    "compound": "CCC(OC(=O)C1=C(CSc2nnnn2CCN(C)C)CS[C@@H]2[C@H](NC(=O)Cc3csc(N)n3)C(=O)N12)OC(=O)C1CCCCC1.Cl.Cl (some centres unmarked) [compound 3]",
    "recorded number": 25000
  },
  {
    "compound": "CCCC(=O)OC(OC(=O)C1=C(CSc2nnnn2CCN(C)C)CS[C@@H]2[C@H](NC(=O)Cc3csc(N)n3)C(=O)N12)C1CCCCC1 (some centres unmarked) [Compound No. 8, dihydrochloride]",
    "recorded number": 39600
  },
  {
    "compound": "CCCC(OC(=O)C1=C(CSc2nnnn2CCN(C)C)CS[C@@H]2[C@H](NC(=O)Cc3csc(N)n3)C(=O)N12)OC(=O)C1CCCCC1.Cl.Cl (some centres unmarked) [compound 4]",
    "recorded number": 38400
  }
]

P = CN(C)CCn1nnnc1SCC1=C(C(=O)OC(OC(=O)C2CCCCC2)C2CCCCC2)N2C(=O)[C@@H](NC(=O)Cc3csc(N)n3)[C@H]2SC1.Cl.Cl (some centres unmarked) [compound 2]
Q = CC(C)C(OC(=O)CC1CCCCC1)OC(=O)C1=C(CSc2nnnn2CCN(C)C)CS[C@@H]2[C@H](NC(=O)Cc3csc(N)n3)C(=O)N12.Cl.Cl (some centres unmarked) [compound 5]
R = CN(C)CCn1nnnc1SCC1=C(C(=O)OCOC(=O)C(C)(C)C)N2C(=O)[C@@H](NC(=O)Cc3csc(N)n3)[C@H]2SC1 [compound A, reference compound]
Sort by Plasma level of non-ester (compound [II]), 0.5 hr, descending. // respond by listing labels in the order requested Q, P, R

The origin of these recorded values is patent US4797395A.
